These entries and their values trace back to ChEMBL document CHEMBL5528035.

- targetDesc: CDK6/cyclin D3 (Homo sapiens) (UniProt P30281+Q00534)
- assayExplanation: Inhibition of CDK6/CyclinD3 (unknown origin) at 100 nM preincubated for 15 mins followed by substrate and ATP addition incubated for 10 mins by ADP-glo luminescent assay relative to control
- Assay type: protein-complex assay
- measurementContext: time 25.0 min
measurementLabel: inhibition (%)
A number alone suffices; assume %.

O=C(CCn1cc(COc2ccc(N(C(=O)CCl)C(C(=O)NCCc3ccccc3)c3cccs3)cc2Cl)nn1)NCCCO/N=C1/C(=C2/C(=O)Nc3ccccc32)Nc2ccccc21 (stereo not drawn) | 52.1
O=C(CCn1cc(COc2ccc(N(C(=O)CCl)C(C(=O)NCCc3ccccc3)c3cccs3)cc2Cl)nn1)NCCCO/N=C1/C(=C2/C(=O)Nc3ccc(F)cc32)Nc2ccccc21 (stereo not drawn) | 36.2

Kindly consider the entry below.
Request: Give the reported value of inhibition for this record: O=C(CCn1cc(COc2ccc(N(C(=O)CCl)C(C(=O)NCCc3ccccc3)c3cccs3)cc2Cl)nn1)NCCCO/N=C1/C(=C2/C(=O)Nc3ccc(Cl)cc32)Nc2ccccc21 (stereo not drawn)
Result: 39.4
